Below: a set of entries, each annotated with reported pIC50.
# System tested: CyclinA2/CDK2 (Homo sapiens, UniProt P20248)
# Construct: purchased CRELUX Protein Services
# Assay notes: Fluorescence Polarization (FP) competitive binding assay, Cyclin A2/Cdk2;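 further: plates equilibrated two hours at room temperature before polarization reading, IC50 fitted from eight-concentration compound titration curves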
# Measurement conditions: 8 nM Cyclin A2/Cdk2, 2 nM FAM probe; average of 2-3 independent experiments; read-out: Cyclin A FP IC50
*1 amine or outer side, *2 acyl side, *3 side chain or, on linkers, in order; H or OH if unused. Where a SMILES comes first, the peptide text is derived from it. Bridges are numbered along the chain shown (N, C = ends). [ ]: non-standard residue; d: D form. The star is where a group is joined. X21 = CN([C@@H](Cc1cc(Cl)ccc1-c1ccc(N2CCN3CCOC[C@H]3C2)cc1)C(=O)[*:2])[*:1]; X114 = CN([C@@H](Cc1cc(Cl)ccc1-c1ccc(OCCN2CCOCC2)cc1)C(=O)[*:2])[*:1]; X186 = CN([C@@H](Cc1cc(Cl)ccc1-c1ccc(N2CCOCC2)cn1)C(=O)[*:2])[*:1]; X82 = CN([C@@H](Cc1cc(Cl)ccc1-c1cnn(S(C)(=O)=O)c1)C(=O)[*:2])[*:1]; X187 = CC(=O)N1CC=C(c2ccc(Cl)cc2C[C@@H](C(=O)[*:2])N(C)[*:1])C1; X192 = COc1cccc(-c2ccc(Cl)cc2C[C@@H](C(=O)[*:2])N(C)[*:1])c1; NMehhhLys(Me) = CN([C@@H](CCCCCCCN(C)[*:3])C(=O)[*:2])[*:1]; X22 = CN([C@@H](Cc1cc(Cl)ccc1-c1cnn(C)c1)C(=O)[*:2])[*:1]; NMe3Pal(2-OcPr,5-F) = CN[C@@H](Cc1cc(F)cnc1OC1CC1)C(=O)O; Oxane2carbonyl(2R-CF3) = O=C([C@@]1(C(F)(F)F)CCCCO1)*; Cyclobutanecarbonyl(1-CF3) = O=C(C1(C(F)(F)F)CCC1)*; cBuCO(3,3-F2-1-CF3) = O=C(C1(C(F)(F)F)CC(F)(F)C1)*; Pro(trans-4-F) = O=C(O)[C@@H]1C[C@@H](F)CN1; Gly(cPr) = N[C@H](C(=O)O)C1CC1
In simple prose, pIC50 is minus the logarithm base ten of a concentration in moles per litre.

Molecule	System tested	Recorded metric	Meas value
CC(=O)N1CC=C(c2ccc(Cl)cc2C[C@H]2C(=O)N(C)CCCCCCC[C@H](N(C)C(=O)[C@@H](NC(=O)[C@@H]3C[C@@H](F)CN3C(=O)C3(C(F)(F)F)CC(F)(F)C3)C3CC3)C(=O)N[C@@H](CC(C)C)C(=O)N2C)C1 [Example 308] ({cBuCO(3,3-F2-1-CF3)}-[Pro(trans-4-F)][Gly(cPr)][NMehhhLys(Me)]L[X187]; lactam 3-C)	CyclinA2/CDK2 (Homo sapiens, UniProt P20248)	pIC50	7.70
CC(=O)N1C2CCC1CC(c1ccc(F)cc1C[C@H]1C(=O)N(C)CCCCCCC[C@H](N(C)C(=O)[C@@H](NC(=O)[C@@H]3C[C@@H](F)CN3C(=O)C3(C(F)(F)F)CC(F)(F)C3)C3CC3)C(=O)N[C@@H](CC(C)C)C(=O)N1C)C2 (single isomer, unassigned) [Example 59-P2]	CyclinA2/CDK2 (Homo sapiens, UniProt P20248)	pIC50	6.74

Query: Field request: pIC50 | item: CC(C)C[C@@H]1NC(=O)[C@@H](N(C)C(=O)[C@@H](NC(=O)[C@@H]2C[C@@H](F)CN2C(=O)C2(C(F)(F)F)CC(F)(F)C2)C2CC2)CCCCCCCN(C)C(=O)[C@H](Cc2cc(Cl)ccc2-c2ccc(N3CCN4CCOC[C@H]4C3)cc2)N(C)C1=O [Example 364] ({cBuCO(3,3-F2-1-CF3)}-[Pro(trans-4-F)][Gly(cPr)][NMehhhLys(Me)]L[X21]; lactam 3-C)
Response: 7.70

Query: Field request: pIC50 | item: CC(C)C[C@@H]1NC(=O)[C@@H](N(C)C(=O)[C@@H](NC(=O)[C@@H]2C[C@@H](F)CN2C(=O)C2(C(F)(F)F)CCC2)C2CC2)CC=CCCCCNC(=O)[C@H](Cc2cc(Cl)cnc2OC(C)C)N(C)C1=O (single isomer, unassigned) [Example 136-P1]
Response: 6.85

Query: Field request: pIC50 | item: CC(C)C[C@@H]1NC(=O)[C@@H](N(C)C(=O)[C@@H](NC(=O)[C@@H]2C[C@@H](F)CN2C(=O)[C@@]2(C(F)(F)F)CCCCO2)C2CC2)CCCCCCCN(C)C(=O)[C@H](Cc2cc(Cl)ccc2-c2cnn(S(C)(=O)=O)c2)N(C)C1=O [Example 299] ({Oxane2carbonyl(2R-CF3)}-[Pro(trans-4-F)][Gly(cPr)][NMehhhLys(Me)]L[X82]; lactam 3-C)
Response: 7.70

Query: Field request: pIC50 | item: CC(C)C[C@@H]1NC(=O)[C@@H](N(C)C(=O)[C@@H](NC(=O)[C@@H]2C[C@@H](F)CN2C(=O)C2(C(F)(F)F)CC(F)(F)C2)C2CC2)CCCCCCCN(C)C(=O)[C@H](Cc2cc(Cl)ccc2-c2ccc(OCCN3CCOCC3)cc2)N(C)C1=O [Example 339] ({cBuCO(3,3-F2-1-CF3)}-[Pro(trans-4-F)][Gly(cPr)][NMehhhLys(Me)]L[X114]; lactam 3-C)
Response: 7.70

Query: Field request: pIC50 | item: CC(C)C[C@@H]1NC(=O)[C@@H](N(C)C(=O)[C@@H](NC(=O)[C@@H]2C[C@@H](F)CN2C(=O)[C@@]2(C(F)(F)F)CCCCO2)C2CC2)CCCCCCCN(C)C(=O)[C@H](Cc2cc(Cl)ccc2-c2cnn(C)c2)N(C)C1=O [Example 184] ({Oxane2carbonyl(2R-CF3)}-[Pro(trans-4-F)][Gly(cPr)][NMehhhLys(Me)]L[X22]; lactam 3-C)
Response: 7.70

Query: Field request: pIC50 | item: COc1cccc(-c2ccc(Cl)cc2C[C@H]2C(=O)N(C)CCCCCCC[C@H](N(C)C(=O)[C@@H](NC(=O)[C@@H]3C[C@@H](F)CN3C(=O)C3(C(F)(F)F)CC(F)(F)C3)C3CC3)C(=O)N[C@@H](CC(C)C)C(=O)N2C)c1 [Example 197] ({cBuCO(3,3-F2-1-CF3)}-[Pro(trans-4-F)][Gly(cPr)][NMehhhLys(Me)]L[X192]; lactam 3-C)
Response: 7.70

Query: Field request: pIC50 | item: CC(C)C[C@@H]1NC(=O)[C@@H](N(C)C(=O)[C@@H](NC(=O)[C@@H]2C[C@@H](F)CN2C(=O)C2(C(F)(F)F)CC(F)(F)C2)C2CC2)CCCCCCCN(C)C(=O)[C@H](Cc2cc(Cl)ccc2-c2ccc(N3CCOCC3)cn2)N(C)C1=O [Example 382] ({cBuCO(3,3-F2-1-CF3)}-[Pro(trans-4-F)][Gly(cPr)][NMehhhLys(Me)]L[X186]; lactam 3-C)
Response: 7.40

Query: Field request: pIC50 | item: CC(C)C[C@H]1NC(=O)[C@H](N(C)C(=O)[C@H](NC(=O)[C@H]2C[C@H](F)CN2C(=O)C2(C#N)CCC2)C2CC2)CCCCCCCN(C)C(=O)[C@@H](Cc2cc(Cl)ccc2-c2cnn(C)c2)N(C)C1=O
Response: 7.70

Query: Field request: pIC50 | item: CC(C)C[C@@H]1NC(=O)[C@@H](N(C)C(=O)[C@@H](NC(=O)[C@@H]2C[C@@H](F)CN2C(=O)C2(C(F)(F)F)CCC2)C2CC2)CC=CCCCCNC(=O)[C@H](Cc2cc(Cl)cnc2OC(C)C)N(C)C1=O (single isomer, unassigned) [Example 136-P2]
Response: 7.10

Query: Field request: pIC50 | item: CC(C)C[C@@H]1NC(=O)[C@@H](N(C)C(=O)[C@@H](NC(=O)[C@@H]2C[C@@H](F)CN2C(=O)C2(C(F)(F)F)CCC2)C2CC2)CCCCCCCN(C)C(=O)[C@H](Cc2cc(F)cnc2OC2CC2)N(C)C1=O [Example 135] ({Cyclobutanecarbonyl(1-CF3)}-[Pro(trans-4-F)][Gly(cPr)][NMehhhLys(Me)]L[NMe3Pal(2-OcPr,5-F)]; lactam 3-C)
Response: 7.10
